All values here come from PubChem BioAssay.

- Target Entity: Torsin-1A-interacting protein 2 (Homo sapiens)
- Assay Info: LULL1 binders on small-molecule microarray, primary screen, cell lysate, human LULL1 lysate, 635/667 nm fluorescence (AID 1092);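 further: probe is lysate of COS7 cells overexpressing human LULL1; score merges per-feature 667 nm fluorescence with signal-to-noise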
- Settings: hLULL1 lysate binding, 635 nm fluorescence, higher = more signal
The threshold is inclusive: composite z-score of exactly 3 counts as criterion met; values below receive criterion not met.

>  <Compound>
Cc1ccc(F)cc1S(=O)(=O)N[C@@H]1CCN(Cc2cccc3[nH]ccc23)C1

>  <Target Entity>
Torsin-1A-interacting protein 2 (Homo sapiens)

>  <Assigned Label>
criterion not met

$$$$
>  <Compound>
CN(C)C(=O)[C@@]1(Cc2ccccc2N=[N+]=[N-])N=C(c2ccc(OCCCO)cc2)O[C@H]1c1ccccc1

>  <Target Entity>
Torsin-1A-interacting protein 2 (Homo sapiens)

>  <Assigned Label>
criterion met

$$$$
>  <Compound>
COc1ccc(C(O)C2C=CC3C(=O)N(c4ccccc4)C(=O)C3N2Nc2ccccc2F)cc1 (stereo not given)

>  <Target Entity>
Torsin-1A-interacting protein 2 (Homo sapiens)

>  <Assigned Label>
criterion met

$$$$
>  <Compound>
COC(=O)C1=CC(CCCO)=CC(C)N(Cc2cccc(OC(F)(F)F)c2)C=C1C(=O)OC (stereo not given)

>  <Target Entity>
Torsin-1A-interacting protein 2 (Homo sapiens)

>  <Assigned Label>
criterion not met

$$$$
>  <Compound>
CCOC(=O)C[C@H]1[C@H](OC(=O)c2ccc(C(=O)c3ccccc3)cc2)[C@@H](NC(=O)CC(C)C)c2cc(OCCCO)ccc2N1C(=O)Cc1ccc(OC)cc1

>  <Target Entity>
Torsin-1A-interacting protein 2 (Homo sapiens)

>  <Assigned Label>
criterion not met

$$$$
>  <Compound>
CO[C@H]1O[C@H](CO)[C@@H](OC(=O)c2ccc(Br)cc2)[C@@H]2OC(=O)[C@H](Cc3ccccc3)C/C=C/C[C@@H](Cc3ccccc3)C(=O)O[C@@H]12

>  <Target Entity>
Torsin-1A-interacting protein 2 (Homo sapiens)

>  <Assigned Label>
criterion not met

$$$$
>  <Compound>
CC1CC/C=C\[C@H]2OC34C=CCN(CCN5CCOCC5)C(=O)[C@H]3N(C(C)CO)C(=O)[C@@H]4C2C(=O)O1 (stereo not given in full)

>  <Target Entity>
Torsin-1A-interacting protein 2 (Homo sapiens)

>  <Assigned Label>
criterion met

$$$$
>  <Compound>
COCC(=C=CC[C@@H](O)c1ccc(OCCO)cc1)CCO

>  <Target Entity>
Torsin-1A-interacting protein 2 (Homo sapiens)

>  <Assigned Label>
criterion not met

$$$$
>  <Compound>
C=C(/C(=C/C[C@@H](OC(C)=O)c1ccc(OCCO)cc1)c1cc(C(=O)OC)ccc1OC)C(C)C

>  <Target Entity>
Torsin-1A-interacting protein 2 (Homo sapiens)

>  <Assigned Label>
criterion not met

$$$$
>  <Compound>
O=C1C2C=CC(C(O)c3ccc(I)cc3)N(Nc3ccccc3)C2C(=O)N1c1ccccc1 (stereo not given)

>  <Target Entity>
Torsin-1A-interacting protein 2 (Homo sapiens)

>  <Assigned Label>
criterion met

$$$$
>  <Compound>
O=c1cccc(-c2ccc(F)cc2)o1

>  <Target Entity>
Torsin-1A-interacting protein 2 (Homo sapiens)

>  <Assigned Label>
criterion not met

$$$$
>  <Compound>
C=CCNC(=O)[C@@H]1[C@H]2C(=O)O[C@H](c3ccccc3)[C@H](c3ccccc3)N2[C@H](c2ccc(O)cc2)[C@@]12C(=O)N(C(=O)OCCOC)c1ccc(C#CCCO)cc12

>  <Target Entity>
Torsin-1A-interacting protein 2 (Homo sapiens)

>  <Assigned Label>
criterion not met

$$$$
>  <Compound>
COCCOC(=O)N1C(=O)[C@@]2(c3cc(C#CCNC(N)=O)ccc31)[C@H](c1ccc(OCCO)cc1)N1[C@H](c3ccccc3)[C@H](c3ccccc3)OC(=O)[C@H]1[C@@H]2C(=O)NC[C@H](O)c1ccccc1

>  <Target Entity>
Torsin-1A-interacting protein 2 (Homo sapiens)

>  <Assigned Label>
criterion not met

$$$$
>  <Compound>
CC(=O)N1CC(C(O)C2C=CC3C(=O)NC(=O)C3N2Nc2ccc(Cl)cc2Cl)c2ccccc21 (stereo not given)

>  <Target Entity>
Torsin-1A-interacting protein 2 (Homo sapiens)

>  <Assigned Label>
criterion not met

$$$$
>  <Compound>
O=C1O[C@H](c2ccccc2)[C@H](c2ccccc2)N2[C@H]1[C@@H](C(=O)N1CCCCCCC1)[C@]1(C(=O)Nc3ccc(C#CC4(O)CCCCCC4)cc31)[C@H]2c1ccc(O)cc1

>  <Target Entity>
Torsin-1A-interacting protein 2 (Homo sapiens)

>  <Assigned Label>
criterion met

$$$$

====

- Assay Info: PSAC antagonists in infected red cells, primary screen, cell-based, P. falciparum Indochina, OD700, 18 h (AID 1157)
- Settings: P. falciparum Indochina infected erythrocytes, osmotic lysis OD700, 18 h; higher = more signal, called active from +8 up or from −8 down
Endpoint Name: z-score

>  <Compound>
O=C(CS)NCCCCCCNC(=O)[C@@H]1C[C@@H]2C(=O)NCC(=O)N2[C@@H]1c1ccc(O)cc1

>  <Observed>
-1.41

$$$$
>  <Compound>
CN1C(=O)[C@@H]2[C@@H](CC(COc3ccccc3)=C([C@H](O)CCc3ccccc3)[C@@H]2CO)C1=O

>  <Observed>
1.43

$$$$
>  <Compound>
C=CCC(OC(C)=O)[C@@H]1[C@@H](N(Cc2cccc3ccccc23)C(=O)c2ccc(-c3ccccc3)cc2)c2cc(OCCCO)ccc2N1C(=O)c1ccc(-c2ccccc2)cc1 (some centres not stated)

>  <Observed>
-0.454

$$$$
>  <Compound>
COCCOC(=O)N1C(=O)[C@@]2(c3cc(C#CCC(C(=O)OC)C(=O)OC)ccc31)[C@H](C(=O)NC[C@H](O)c1ccccc1)[C@H]1C(=O)O[C@H](c3ccccc3)[C@H](c3ccccc3)N1[C@@H]2c1ccc(OCCO)cc1

>  <Observed>
1.12

$$$$
>  <Compound>
CCOC(=O)C[C@H]1[C@H](OC(=O)c2ccc(-c3ccccc3)cc2)[C@@H](NC(=O)Cc2ccc(OC)cc2)c2cc(OCCCO)ccc2N1C(=O)Cc1ccc(OC)cc1

>  <Observed>
0.211

$$$$
>  <Compound>
COCCOC(=O)N1C(=O)[C@@]2(c3cc(C#CCCO)ccc31)[C@H](C(N)=O)[C@H]1C(=O)O[C@H](c3ccccc3)[C@H](c3ccccc3)N1[C@@H]2c1ccc(OCCO)cc1

>  <Observed>
1.3

$$$$
>  <Compound>
C=C(C(=O)CC[C@H](OC(=O)c1ccccc1-c1ccccc1C(=O)O)c1ccccc1OCCO)C(C)C

>  <Observed>
0.577

$$$$

====

This listing pairs compounds with measured composite z-score.
- Target Entity: Torsin-1A (Homo sapiens) (UniProt O14656)
- Sequence (O14656 whole entry, looked up): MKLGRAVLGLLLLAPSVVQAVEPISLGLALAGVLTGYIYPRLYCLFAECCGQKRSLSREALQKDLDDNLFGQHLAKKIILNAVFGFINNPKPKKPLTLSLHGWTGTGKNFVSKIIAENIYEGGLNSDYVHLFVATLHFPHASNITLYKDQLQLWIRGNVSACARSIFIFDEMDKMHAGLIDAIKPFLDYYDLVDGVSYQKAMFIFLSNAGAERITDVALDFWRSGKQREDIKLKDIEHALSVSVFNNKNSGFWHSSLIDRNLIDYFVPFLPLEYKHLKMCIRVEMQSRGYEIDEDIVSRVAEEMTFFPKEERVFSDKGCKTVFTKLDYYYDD
- Assay Info: torsin A binders from cell lysate, primary screen, small-molecule microarray, wild-type, 635/667 nm (AID 1149)
- Settings: COS7 hTOR1A-WT lysate, 635 nm fluorescence, higher = more signal
Endpoint Name: composite z-score

>  <Compound>
NC(=O)[C@@H]1[C@H]2C(=O)O[C@H](c3ccccc3)[C@H](c3ccccc3)N2[C@H](c2ccc(OCCO)cc2)[C@@]12C(=O)Nc1ccc(C#CCCO)cc12

>  <Observed>
0.632

$$$$
>  <Compound>
C=CCC(OC(C)=O)[C@@H]1[C@@H](N(Cc2ccc(-c3cccc(C(F)(F)F)c3)o2)C(=O)Cc2ccc(OC)cc2)c2cc(OCCCO)ccc2N1C(=O)Cc1ccc2ccccc2c1 (stereo partly drawn)

>  <Observed>
-1.96

$$$$
>  <Compound>
COCCCNC(=O)[C@@H]1c2ccccc2C(=O)N(C2Cc3ccccc3C2)[C@H]1c1ccc(CO)cc1

>  <Observed>
0.717

$$$$

====

- Assay Info: binders of probe aFGF2 on microarray, primary screen, stem cell growth factor project, biochemical, small-molecule microarray, fluorescence 635/667 (AID 1067);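 further: measures binding of biotinylated aFGF2 protein to printed compounds on slides; z-score merges feature fluorescence and signal-to-noise across triplicate slides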
- Settings: higher = more signal

>  <Compound>
COc1ccc([Si](C)(C)[C@H]2[C@H](CC(=O)N3Cc4ccccc4C[C@H]3CO)O[C@@]3(C(=O)N(Cc4ccc(N5C(=O)c6cccc7cccc5c67)cc4)c4ccccc43)[C@@H]2C)cc1

>  <composite z-score>
-0.0953

$$$$
>  <Compound>
CC1CC/C=C\[C@H]2OC34C=CCN(CCN5CCOCC5)C(=O)[C@H]3N(C(C)CO)C(=O)[C@@H]4C2C(=O)O1 (stereo partly drawn)

>  <composite z-score>
-0.125

$$$$
>  <Compound>
CN1C=C(C(=O)OCCS(C)(=O)=O)C(C(=O)OCCS(C)(=O)=O)=CC(c2ccc(CO)cc2)=CC1c1cccs1 (stereo not drawn)

>  <composite z-score>
-0.0448

$$$$
>  <Compound>
CC(C)C[C@@H]1NC(=O)CNC(=O)[C@@]23C(=O)N[C@@H](Cc4ccccc4)C2[C@H](C)[C@@]2(C)O[C@H]2C3/C=C/C/C=C\CNC1=O (stereo partly drawn)

>  <composite z-score>
-0.087

$$$$
>  <Compound>
COc1ccc([Si](C)(C)[C@H]2[C@H](CC(=O)N3CCC[C@H]3CO)O[C@@]3(C(=O)N(Cc4ccc(N5CCC5=O)cc4)c4ccccc43)[C@@H]2C)cc1

>  <composite z-score>
-0.0276

$$$$
>  <Compound>
COC(=O)[C@@]1(Cc2ccc(OC)cc2)[C@H]2c3cc(C(=O)N4CCCC4)n(Cc4cc(C)n(C)n4)c3C[C@H]2CN1C(=O)c1ccccc1

>  <composite z-score>
0.37

$$$$
>  <Compound>
COCCOC(=O)N1C(=O)[C@@]2(c3cc(C#CC4=CCCCC4)ccc31)[C@H](C(=O)N1CCCCCCC1)[C@H]1C(=O)O[C@H](c3ccccc3)[C@H](c3ccccc3)N1[C@@H]2c1ccc(OCCO)cc1

>  <composite z-score>
0.316

$$$$
>  <Compound>
COC(=O)C1=CC(CCCO)=CC(C)N(Cc2cccc(OC(F)(F)F)c2)C=C1C(=O)OC (stereo not drawn)

>  <composite z-score>
-0.0667

$$$$
>  <Compound>
CC(C)N1CC=CC23O[C@@H]4/C=C\CCCOC(=O)C4[C@H]2C(=O)N(CCCCCCO)[C@@H]3C1=O (stereo partly drawn)

>  <composite z-score>
-0.0924

$$$$
>  <Compound>
O=C1C2C=CC(C(O)c3cc(C(F)(F)F)cc(C(F)(F)F)c3)N(Nc3ccccc3F)C2C(=O)N1c1ccccc1 (stereo not drawn)

>  <composite z-score>
-0.0049

$$$$
>  <Compound>
C=C(C)C1CCC(C(O)C2C=CC3C(=O)N(C)C(=O)C3N2Nc2cc(OC)c(OC)c(OC)c2)CC1 (stereo not drawn)

>  <composite z-score>
0.115

$$$$
>  <Compound>
CCOC(=O)C[C@H]1[C@H](OC(=O)c2ccc(C(=O)c3ccccc3)cc2)[C@@H](NC(=O)CC(C)C)c2cc(OCCCO)ccc2N1C(=O)Cc1ccc(OC)cc1

>  <composite z-score>
-0.105

$$$$
>  <Compound>
O=C1[C@@]23C=C(Br)[C@H](C[C@@H]2COC3)[C@@]12CO2

>  <composite z-score>
-0.112

$$$$
>  <Compound>
CN1C(=O)C2C=CC(C(O)c3cc(C(F)(F)F)cc(C(F)(F)F)c3)N(NC(=O)OC(C)(C)C)C2C1=O (stereo not drawn)

>  <composite z-score>
-0.0169

$$$$
>  <Compound>
[N-]=[N+]=Nc1ccccc1C[C@@]1(C(=O)O)N=C(c2ccc(OCCCO)cc2)O[C@@H]1c1ccccc1N=[N+]=[N-]

>  <composite z-score>
0.0171

$$$$
>  <Compound>
COCCCNC(=O)[C@@H]1c2ccccc2C(=O)N(C2Cc3ccccc3C2)[C@H]1c1ccc(CO)cc1

>  <composite z-score>
-0.151

$$$$
>  <Compound>
C=CCN1C(=O)[C@@]2(O[C@@H](CCO)[C@H]([Si](C)(C)c3ccc(OC)cc3)[C@H]2C)c2cc(N3CCOC3=O)ccc21

>  <composite z-score>
-0.0455

$$$$
>  <Compound>
C=C(/C(=C/C[C@@H](OC(=O)c1ccncc1)c1cccc(OCCO)c1)c1cnc2ccccc2c1)C(C)C

>  <composite z-score>
-0.123

$$$$
>  <Compound>
C=C(/C(=C/C[C@@H](OC(C)=O)c1ccc(OCCO)cc1)c1cc(C(=O)OC)ccc1OC)C(C)C

>  <composite z-score>
-0.155

$$$$
>  <Compound>
CC(C)CCC[C@@H](C)[C@H]1CC[C@@]2(C)C3=C(CC[C@]12C)[C@@]1(C)CC[C@H](OC(=O)c2ccccc2)C(C)(C)C1CC3 (stereo partly drawn)

>  <composite z-score>
-0.0916

$$$$
>  <Compound>
CN(C)CCCC[C@@H]1NC(=O)[C@@H]2C[C@H](C(=O)O)[C@H](c3cccc(OCCO)c3)N2C1=O

>  <composite z-score>
-0.186

$$$$
>  <Compound>
CCOC(=O)C[C@H]1[C@H](OC(=O)c2ccccc2-c2ccccc2)[C@@H](NC(=O)c2ccc3ccccc3n2)c2cc(OCCCO)ccc2N1C(=O)c1ccccc1

>  <composite z-score>
-0.0752

$$$$
>  <Compound>
COC(=O)[C@@]1(Cc2ccccc2)[C@H]2c3cc(C(=O)N4CCCC4)n(CCSCCO)c3C[C@H]2CN1C(=O)c1ccccc1

>  <composite z-score>
0.457

$$$$
>  <Compound>
CC(C)(C)OC(=O)CC[C@]1(C(=O)N2CCCCC2)COC(c2ccc(OCCCO)cc2)=N1

>  <composite z-score>
0.0159

$$$$
>  <Compound>
CC(C)(C)OC(=O)CC[C@]12N=C(c3ccc(OCCCO)cc3)O[C@H]1c1ccccc1N(Cc1ccccc1)C2=O

>  <composite z-score>
0.0436

$$$$
>  <Compound>
NCCCCCNC(=O)[C@H]1C[C@H]2C(=O)N[C@@H](Cc3ccccc3)C(=O)N2[C@H]1c1ccc(O)cc1

>  <composite z-score>
0.175

$$$$
>  <Compound>
C=C(CCCC)/C(=C/C[C@H](OC(C)=O)c1ccc(OCCO)cc1)c1cc(C(=O)OC)ccc1OC

>  <composite z-score>
0.0057

$$$$
>  <Compound>
C=CCNC(=O)[C@@H]1[C@H]2C(=O)O[C@H](c3ccccc3)[C@H](c3ccccc3)N2[C@H](c2ccc(O)cc2)[C@@]12C(=O)N(C(=O)OCCOC)c1ccc(C#CCCO)cc12

>  <composite z-score>
-0.0222

$$$$
